Source of measurements: patent US10017480B2

Test: Pharmacokinetic analysis, plasma and brain
Conditions: male, BALB/c, mouse, brain, sc, 10 mg/kg
Assay metric: Cmax (ng/g)

* COc1ccc(-c2ccn(CC(O)CN3CCOCC3)n2)cc1OC1CCCC1 (stereo not shown) [XVIIIa] | 936

---

Where a name gives a salt, the structure may show the parent alone.
// reported melting point per item
Assay metric: melting point

• COc1ccc(C2=NOC(CC(=O)N3CCC(O)CC3)C2)cc1OC1CCCC1 (stereo not shown) = 134 °C
• COc1ccc(C2=NOC(CC(=O)N3CC(C)OC(C)C3)C2)cc1OC1CCCC1 (stereo not shown) = 104 to 105 °C
• COc1ccc(C2=NOC(CC(=O)N(CCO)CCO)C2)cc1OC1CCCC1 (stereo not shown) = 136 to 138 °C
• COc1ccc(-c2cc(C(=O)N3CCOCC3)on2)cc1OC1CCCC1 = 100 to 101 °C
• COc1ccc(-c2cc(C(O)CN3CC(C)OC(C)C3)on2)cc1OC1CCCC1 (stereo not shown) = 92 to 94 °C
• COc1ccc(-c2cc(C(=O)N3CC(C)OC(C)C3)on2)cc1OC1CCCC1 (stereo not shown) = 152 to 153 °C
• COc1ccc(-c2ccn(CC(=O)N3CC(C)OC(C)C3)c2)cc1OC1CCCC1 (stereo not shown) = 108 to 112 °C
• COc1ccc(C2=NOC(C(=O)N3CC(C)OC(C)C3)C2)cc1OC1CCCC1 (stereo not shown) = 127 to 129 °C
• COc1ccc(-c2ccn(CCC(=O)N3CCC(O)CC3)c2)cc1OC1CCCC1 = 110 to 112 °C
• COc1ccc(-c2ccn(CC(=O)N3CCOCC3)c2)cc1OC1CCCC1 = 169 to 171 °C
• COc1ccc(C2=NOC(C(=O)N3CCC(O)CC3)C2)cc1OC1CCCC1 (stereo not shown) = 134 °C
• COc1ccc(-c2cc(C(=O)CN3CCOCC3)on2)cc1OC1CCCC1 (as salt: hydrochloride) = 175 °C (dec.)
• COc1ccc(-c2ccn(CC(=O)N3CCC(O)CC3)c2)cc1OC1CCCC1 = 156 to 158 °C
• COc1ccc(-c2ccn(CC(O)CN3CC(C)OC(C)C3)n2)cc1OC1CCCC1 (stereo not shown) (as salt: salt) = 188 to 189 °C
• COc1ccc(C2=NOC(C(=O)N3CCCC3)C2)cc1OC1CCCC1 (stereo not shown) = 126 to 127 °C
• COc1ccc(-c2ccn(CC(O)CN3CCOCC3)n2)cc1OC1CCCC1 (stereo not shown) (as salt: salt) = 162 to 163 °C

---

Target: PDE4D3 (Homo sapiens, UniProt Q08499)
Sequence (Q08499 1-673 isoform Q08499-2): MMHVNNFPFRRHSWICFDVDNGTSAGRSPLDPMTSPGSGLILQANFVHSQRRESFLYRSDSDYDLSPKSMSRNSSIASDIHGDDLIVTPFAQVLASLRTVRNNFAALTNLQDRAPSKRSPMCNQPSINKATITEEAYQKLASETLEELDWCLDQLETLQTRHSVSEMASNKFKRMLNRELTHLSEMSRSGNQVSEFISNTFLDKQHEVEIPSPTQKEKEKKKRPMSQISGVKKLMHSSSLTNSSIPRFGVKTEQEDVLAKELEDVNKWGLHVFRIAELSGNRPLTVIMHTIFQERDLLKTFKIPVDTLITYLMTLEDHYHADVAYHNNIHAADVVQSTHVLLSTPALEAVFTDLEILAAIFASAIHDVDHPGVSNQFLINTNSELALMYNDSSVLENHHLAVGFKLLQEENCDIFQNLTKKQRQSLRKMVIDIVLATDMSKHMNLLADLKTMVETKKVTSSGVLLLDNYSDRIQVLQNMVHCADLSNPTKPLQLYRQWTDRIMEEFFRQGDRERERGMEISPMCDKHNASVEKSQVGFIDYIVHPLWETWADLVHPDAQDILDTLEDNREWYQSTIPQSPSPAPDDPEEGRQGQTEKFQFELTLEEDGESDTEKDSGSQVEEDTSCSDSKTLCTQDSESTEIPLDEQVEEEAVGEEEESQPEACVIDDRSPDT
Assay: PDE4D3 enzyme inhibition (IMAP)
Format: biochemical
Settings: 10 μM, in duplicate
Counter-ions that a name gives are not always drawn.
Assay metric: PDE4D3 % inib at 10 μM (%)

• COc1ccc(C2=NOC(C(=O)N(CCO)CCO)C2)cc1OC1CCCC1 (stereo not shown) [XIIIf] = 33
• COc1ccc(C2=NOC(C(=O)N3CCC(O)CC3)C2)cc1OC1CCCC1 (stereo not shown) [XIIIc] = 26
• COc1ccc(C2=NOC(CC(=O)N3CCC(O)CC3)C2)cc1OC1CCCC1 (stereo not shown) [XIVc] = 30
• COc1ccc(-c2ccn(CCC(=O)N3CCOCC3)c2)cc1OC1CCCC1 [XXIVa] = 44
• COc1ccc(-c2cc(C(=O)CN3CCOCC3)on2)cc1OC1CCCC1 [XVa, hydrochloride] = 39
• COc1ccc(-c2c[nH]cc2C(=O)N2CCC(O)CC2)cc1OC1CCCC1 [XXVIc] = 15
• COc1ccc(-c2ccn(CC(=O)N3CC(C)OC(C)C3)n2)cc1OC1CCCC1 (stereo not shown) [XXb] = 23
• COc1ccc(C2=NOC(C(=O)N3CC(C)OC(C)C3)C2)cc1OC1CCCC1 (stereo not shown) [XIIIb] = 29
• COc1ccc(C2=NOC(C(=O)N3CCCCC3)C2)cc1OC1CCCC1 (stereo not shown) [XIIIe] = 8
• COc1ccc(-c2cc(C(O)CN3CC(C)OC(C)C3)on2)cc1OC1CCCC1 (stereo not shown) [XVIb] = 15
• COc1ccc(-c2cc(C(O)CN3CCOCC3)on2)cc1OC1CCCC1 (stereo not shown) [XVIa] = 38
• COc1ccc(-c2cc(C(=O)CN3CC(C)OC(C)C3)on2)cc1OC1CCCC1 (stereo not shown) [XVb, hydrochloride] = 13
• COc1ccc(-c2c[nH]cc2C(=O)N2CCOCC2)cc1OC1CCCC1 [XXVIa] = 13
• COc1ccc(C2=NOC(CC(=O)N3CCCCC3)C2)cc1OC1CCCC1 (stereo not shown) [XIVe] = 40
• COc1ccc(C2=NOC(CC(=O)N3CCNCC3)C2)cc1OC1CCCC1 (stereo not shown) [XIVf] = 23
• COc1ccc(C2=NOC(CC(=O)N3CCOCC3)C2)cc1OC1CCCC1 (stereo not shown) [XIVa] = 29
• COc1ccc(-c2ccn(CCC(=O)N3CCC(O)CC3)c2)cc1OC1CCCC1 [XXIVc] = 29
• COc1ccc(-c2ccn(CC(O)CN3CC(C)OC(C)C3)c2)cc1OC1CCCC1 (stereo not shown) [XXVb] = 36
• COc1ccc(-c2ccn(CC(O)CN3CC(C)OC(C)C3)n2)cc1OC1CCCC1 (stereo not shown) [XVIIIb] = 78
